Field: IC50. Provide a value for each of the molecules that follow.
# assay target: binding of KRAS^G12C to SOS1 (Homo sapiens, UniProt Q07889)
# Construct: Tag1 (unspecified)
# Sequence (Q07889 whole entry, stated change not applied): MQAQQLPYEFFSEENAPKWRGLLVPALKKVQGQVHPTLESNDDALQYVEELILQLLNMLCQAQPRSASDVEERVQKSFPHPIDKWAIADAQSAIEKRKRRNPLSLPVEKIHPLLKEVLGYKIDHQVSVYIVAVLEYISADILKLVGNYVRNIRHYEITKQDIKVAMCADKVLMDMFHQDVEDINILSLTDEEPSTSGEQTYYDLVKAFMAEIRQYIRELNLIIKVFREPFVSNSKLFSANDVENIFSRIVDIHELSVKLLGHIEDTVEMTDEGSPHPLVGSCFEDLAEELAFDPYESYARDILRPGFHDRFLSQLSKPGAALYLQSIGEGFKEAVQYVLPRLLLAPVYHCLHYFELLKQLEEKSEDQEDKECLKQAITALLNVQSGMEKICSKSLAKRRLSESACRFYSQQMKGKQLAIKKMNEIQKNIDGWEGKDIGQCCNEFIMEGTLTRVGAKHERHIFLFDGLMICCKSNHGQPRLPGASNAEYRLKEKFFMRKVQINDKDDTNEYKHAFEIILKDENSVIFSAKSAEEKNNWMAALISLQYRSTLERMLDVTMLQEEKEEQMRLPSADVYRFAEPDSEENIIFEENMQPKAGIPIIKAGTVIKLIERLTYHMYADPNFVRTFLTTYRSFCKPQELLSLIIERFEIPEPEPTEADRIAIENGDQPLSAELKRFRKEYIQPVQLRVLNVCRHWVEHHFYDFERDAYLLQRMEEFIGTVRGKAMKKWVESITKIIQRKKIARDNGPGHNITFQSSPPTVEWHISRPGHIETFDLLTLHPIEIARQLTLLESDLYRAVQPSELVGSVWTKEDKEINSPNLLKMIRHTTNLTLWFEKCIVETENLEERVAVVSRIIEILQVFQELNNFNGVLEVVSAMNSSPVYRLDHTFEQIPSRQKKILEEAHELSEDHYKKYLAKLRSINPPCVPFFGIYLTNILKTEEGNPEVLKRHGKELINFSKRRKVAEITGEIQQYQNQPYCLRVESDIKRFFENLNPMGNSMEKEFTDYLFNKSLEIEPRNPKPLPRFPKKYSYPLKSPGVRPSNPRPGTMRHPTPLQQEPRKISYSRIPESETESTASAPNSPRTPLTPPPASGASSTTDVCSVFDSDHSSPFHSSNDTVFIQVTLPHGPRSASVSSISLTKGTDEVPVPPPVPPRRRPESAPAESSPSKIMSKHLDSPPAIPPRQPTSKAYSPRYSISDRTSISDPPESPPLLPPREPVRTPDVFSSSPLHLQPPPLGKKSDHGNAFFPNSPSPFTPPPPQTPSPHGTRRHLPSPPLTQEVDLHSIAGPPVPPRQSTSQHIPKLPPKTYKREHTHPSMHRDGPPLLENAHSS
# run description: Inhibition of the binding of KRAS^G12C to SOS1
# experimental parameters: Tag1-SOS1 / Tag2-KRAS^G12C, 2 h incubation at room temperature; read-out: IC50 (nM), inhibitory activity on the binding of KRAS^G12C to SOS1
Give bare numbers, in nM.

# annotated cases, reported IC50 shown
COc1cc2nc(C)nc(N[C@H](C)c3cc(N)cc(C(F)(F)F)c3)c2cc1OCCO[C@H]1CCOC1	7
COCCOc1cc2c(N[C@H](C)c3cccc(C(F)(F)C(C)(C)O)c3F)nc(C)nc2cc1OC	3.2
COc1cc2nc(C)nc(N[C@H](C)c3cccc(C(F)(F)F)c3F)c2cc1OCC1(CO)CC1	16
COc1cc2nc(C)nc(N[C@H](C)c3cc(N)cc(C(F)(F)F)c3)c2cc1OCC1(CN(C)C)CC1	3.6
COc1cc2nc(C)nc(N[C@H](C)c3cccc(C(F)(F)C(C)(C)O)c3F)c2cc1OC[C@H]1COCCO1	8.5

Provide each entry's IC50 from the list below.
1. COc1cc2nc(C)nc(N[C@H](C)c3cccc(C(F)(F)F)c3F)c2cc1OC[C@@H]1CCCN1C
2. COc1cc2nc(C)nc(N[C@H](C)c3cc(N)cc(C(F)(F)F)c3)c2cc1OCCN(C)CC1(F)CC1

Response:
1. 36
2. 4.7
